Value source: PubChem BioAssay AID2060495

# Tested on: 521955-158-R2-J5-PDC complex spheroid viability;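 further: spheroids exposed to agents for one week before reading; 100% = DMSO vehicle control viability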
# experimentDescription: Anticancer human tumor 521955-158-R2-J5-PDC patient-derived pancreatic carcinoma cell line growth inhibition [GQUAD]
# assayConditions: second compound 3.16 µM; first compound 0.316 µM; active compounds read low
attributeMeasured: viability, T/C

Example entries begin here.
# molecule, viability, T/C
measured = [
    ("CC[C@@]1(O)C(=O)OCc2c1cc1n(c2=O)Cc2cc3c(CN(C)C)c(O)ccc3nc2-1 + CN(C)c1ccc(Nc2c3ccc(NC(=O)CCN4CCCC4)cc3nc3cc(NC(=O)CCN4CCCC4)ccc23)cc1", "26.5%"),
    ("CC[C@@]1(O)C(=O)OCc2c1cc1n(c2=O)Cc2cc3c(CN(C)C)c(O)ccc3nc2-1 + Cc1[nH]c2ccc(F)cc2c1-c1nc2c3cccnc3c3ncccc3c2[nH]1", "10.8%"),
    ("C#Cc1c(F)ccc2cc(O)cc(-c3ncc4c(N5CC6CCC(C5)N6)nc(OCC56CCCN5CC(F)C6)nc4c3F)c12 (stereo unspecified) + Cc1[nH]c2ccc(F)cc2c1-c1nc2c3cccnc3c3ncccc3c2[nH]1", "59.5%"),
    ("C=CCn1c(=O)c2cnc(Nc3ccc(N4CCN(C)CC4)cc3)nc2n1-c1cccc(C(C)(C)O)n1 + Cc1cnc(CNC(=O)c2c(=O)c3ccc(N4CCCN(C)CC4)nc3n3c2sc2ccccc23)cn1", "17.8%"),
    ("Cc1cccc(N(C)C(=O)C2C(O)CCN2c2nc(C)cc(C(F)(F)F)c2C#N)c1 (stereo unspecified) + CN(C)c1ccc(Nc2c3ccc(NC(=O)CCN4CCCC4)cc3nc3cc(NC(=O)CCN4CCCC4)ccc23)cc1", "77.4%"),
    ("CC(C)n1c(=O)n(C)c2cnc3cc(F)c(-c4ccc(OCCCN5CCCCC5)nc4)cc3c21 + Cc1[nH]c2ccc(F)cc2c1-c1nc2c3cccnc3c3ncccc3c2[nH]1", "109%"),
]

Quick one: viability, T/C of O=C(NO)c1cnc(N2CCN(S(=O)(=O)c3ccc4ccccc4c3)CC2)nc1 + Cc1[nH]c2ccc(F)cc2c1-c1nc2c3cccnc3c3ncccc3c2[nH]1 ? 105%

Please answer likewise for COc1cccc2c1C(=O)c1c(O)c3c(c(O)c1C2=O)CC(O)(C(=O)CO)CC3OC1CC(N)C(O)C(C)O1 (stereo unspecified) + Cc1cnc(CNC(=O)c2c(=O)c3ccc(N4CCCN(C)CC4)nc3n3c2sc2ccccc23)cn1 15%

Query C=CC(=O)N1CCN(c2nc(=O)n(-c3c(C)ccnc3C(C)C)c3nc(-c4c(O)cccc4F)c(F)cc23)C(C)C1 (stereo unspecified) + Cc1[nH]c2ccc(F)cc2c1-c1nc2c3cccnc3c3ncccc3c2[nH]1 next 98%

// same read-out, input: COc1ncnc(C2CC2)c1-c1ncc2cnn(Cc3ccc(-c4nc(C(F)(F)F)cn4C(C)C)cc3)c2n1 + Cc1[nH]c2ccc(F)cc2c1-c1nc2c3cccnc3c3ncccc3c2[nH]1 98.1%

Same read-out for CC(C)(O)C1CCC(Nc2ccc3ncc(-c4cccc(C(F)(F)F)c4)n3n2)CC1 (stereo unspecified) + Cc1[nH]c2ccc(F)cc2c1-c1nc2c3cccnc3c3ncccc3c2[nH]1 ? 92.9%

Try CC1COCCN1c1cc(C2(O)CC3CCC(C2)O3)c2cnn(-c3ccn[nH]3)c2n1 (stereo unspecified) + CN(C)c1ccc(Nc2c3ccc(NC(=O)CCN4CCCC4)cc3nc3cc(NC(=O)CCN4CCCC4)ccc23)cc1 next. 18.9%

Again, but for Cc1[nH]c2ccccc2c1CCNCc1ccc(/C=C/C(=O)NO)cc1 + CN(C)c1ccc(Nc2c3ccc(NC(=O)CCN4CCCC4)cc3nc3cc(NC(=O)CCN4CCCC4)ccc23)cc1 13.2%
